- TESTED_SYSTEM: B-cell receptor CD22 (Homo sapiens)
- MEASUREMENT_PROTOCOL: Binding affinity to biotinylated human CD22-human IgG1 chimeric protein expressed in mouse J558LST6 cells by flow cytometry
Field: IC50. Provide a value for each of the compounds that follow.
Numbers only, in µM.

Examples with their reported IC50 follow.
| SMI | REPORTED_PROPERTY | MEAS_VALUE |
| --- | --- | --- |
| COc1ccc(O[C@@H]2O[C@H](CO[C@]3(C(=O)O)C[C@H](O)[C@@H](NC(=O)CO)[C@H]([C@H](O)[C@H](O)CNC(=O)c4ccc5ccccc5c4)O3)[C@H](O)[C@H](O)[C@H]2O)cc1 | IC50 | 2.6 |
| COc1ccc(O[C@@H]2O[C@H](CO[C@]3(C(=O)O)C[C@H](O)[C@@H](NC(=O)CO)[C@H]([C@H](O)[C@H](O)CNCc4ccc(-c5ccccc5)cc4)O3)[C@H](O)[C@H](O)[C@H]2O)cc1 | IC50 | 0.47 |
| COc1ccc(O[C@@H]2O[C@H](CO[C@]3(C(=O)O)C[C@H](O)[C@@H](NC(=O)CO)[C@H]([C@H](O)[C@H](O)CNCc4ccc(-c5ccc(C)cc5)cc4)O3)[C@H](O)[C@H](O)[C@H]2O)cc1 | IC50 | 9.83 |
| COc1ccc(O[C@@H]2O[C@H](CO[C@]3(C(=O)O)C[C@H](O)[C@@H](NC(=O)CO)[C@H]([C@H](O)[C@H](O)CNC(=O)c4cccnc4)O3)[C@H](O)[C@H](O)[C@H]2O)cc1 | IC50 | 132 |
| COc1ccc(O[C@@H]2O[C@H](CO[C@]3(C(=O)O)C[C@H](O)[C@@H](NC(=O)CO)[C@H]([C@H](O)[C@H](O)CNCc4ccc(-c5ccc(C(F)(F)F)cc5)cc4)O3)[C@H](O)[C@H](O)[C@H]2O)cc1 | IC50 | 45 |

Give IC50 for each listed item.
1. COc1ccc(O[C@@H]2O[C@H](CO[C@]3(C(=O)O)C[C@H](O)[C@@H](NC(=O)CO)[C@H]([C@H](O)[C@H](O)CNC(=O)CCc4ccccc4)O3)[C@H](O)[C@H](O)[C@H]2O)cc1
2. COc1ccc(O[C@@H]2O[C@H](CO[C@]3(C(=O)O)C[C@H](O)[C@@H](NC(=O)CO)[C@H]([C@H](O)[C@H](O)CNC(=O)Cc4ccc(-c5ccccc5)cc4)O3)[C@H](O)[C@H](O)[C@H]2O)cc1
3. COc1ccc(O[C@@H]2O[C@H](CO[C@]3(C(=O)O)C[C@H](O)[C@@H](NC(=O)CO)[C@H]([C@H](O)[C@H](O)CNC(=O)c4ccccc4O)O3)[C@H](O)[C@H](O)[C@H]2O)cc1

A)
10.4
3.7
193

Q) Recall and state the measured IC50 for `COc1ccc(O[C@@H]2O[C@H](CO[C@]3(C(=O)O)C[C@H](O)[C@@H](NC(=O)CO)[C@H]([C@H](O)[C@H](O)CNCc4ccc(-c5ccccc5O)cc4)O3)[C@H](O)[C@H](O)[C@H]2O)cc1` .
A) 0.23

----------
- TESTED_SYSTEM: B-cell receptor CD22 (Homo sapiens, UniProt P20273)
- Sequence (P20273 whole entry): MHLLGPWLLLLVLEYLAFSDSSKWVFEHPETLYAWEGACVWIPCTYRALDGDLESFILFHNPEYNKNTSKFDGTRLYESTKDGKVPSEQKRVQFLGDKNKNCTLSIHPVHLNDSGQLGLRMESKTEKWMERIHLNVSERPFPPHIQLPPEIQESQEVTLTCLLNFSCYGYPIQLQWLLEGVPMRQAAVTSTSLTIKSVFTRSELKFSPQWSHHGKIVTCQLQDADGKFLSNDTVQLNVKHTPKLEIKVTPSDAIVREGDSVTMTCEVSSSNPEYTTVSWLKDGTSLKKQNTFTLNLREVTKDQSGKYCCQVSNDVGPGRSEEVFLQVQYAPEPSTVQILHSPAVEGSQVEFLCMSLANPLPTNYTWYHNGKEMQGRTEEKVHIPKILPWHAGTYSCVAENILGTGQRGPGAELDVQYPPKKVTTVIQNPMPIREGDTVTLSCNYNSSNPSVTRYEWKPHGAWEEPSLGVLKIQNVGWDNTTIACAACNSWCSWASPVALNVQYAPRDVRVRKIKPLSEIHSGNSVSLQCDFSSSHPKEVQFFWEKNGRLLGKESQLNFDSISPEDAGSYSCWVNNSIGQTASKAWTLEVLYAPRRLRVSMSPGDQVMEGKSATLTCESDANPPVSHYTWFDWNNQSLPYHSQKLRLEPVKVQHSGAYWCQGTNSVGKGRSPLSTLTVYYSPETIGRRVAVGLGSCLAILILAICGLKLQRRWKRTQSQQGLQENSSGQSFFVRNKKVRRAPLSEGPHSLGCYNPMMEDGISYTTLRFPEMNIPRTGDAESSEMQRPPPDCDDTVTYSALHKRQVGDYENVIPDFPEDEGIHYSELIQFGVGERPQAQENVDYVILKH
- MEASUREMENT_PROTOCOL: Binding affinity to biotinylated human CD22-human IgG1 chimeric protein expressed in mouse J558LST6 cells by flow cytometry
Field: pIC50. Provide a value for each of the molecules that follow.
Give bare numbers, as −log10 of the molar value.

Examples with their reported pIC50 follow.
| SMI | pIC50 |
| --- | --- |
| C[Si](C)(C)CCO[C@@H]1O[C@H](CO[C@]2(C(=O)O)C[C@H](O)[C@@H](NC(=O)CO)[C@H]([C@H](O)[C@H](O)CO)O2)[C@H](O)[C@H](O)[C@H]1O | 3.26 |
| COc1ccc(O[C@@H]2O[C@H](CO[C@]3(C(=O)O)C[C@H](O)[C@@H](NC(=O)CO)[C@H]([C@H](O)[C@H](O)CNC(=O)c4ccc(-c5cccc(C(=O)O)c5)cc4)O3)[C@H](O)[C@H](O)[C@H]2O)cc1 | 5.15 |

# ---- query molecule ----
Q) Recall and state the measured pIC50 for `COc1ccc(O[C@@H]2O[C@H](CO[C@]3(C(=O)O)C[C@H](O)[C@@H](NC(=O)CO)[C@H]([C@H](O)[C@H](O)CNC(=O)c4ccc(-c5ccc(O)cc5)cc4)O3)[C@H](O)[C@H](O)[C@H]2O)cc1` .
A) 6.40
